protocolText: Water solubility of compound at pH 7 at 0.1 to 10 mg by HPLC-UV analysis
Type: physicochemical
assaySetup: dose 0.1-10 mg
Each entry below carries its reported solubility.
# output: bare number, implied unit µg/mL

smilesRepr | valueUnits | solubility
CCNc1cc(Oc2c(OC)cc3cc(C#N)ccc3c2OC)nc(Nc2ccc(C#N)cc2)n1.O=S(=O)(O)O | µg/mL | 4

Now take the following compound into account.
Data request: Given the compound `CCNc1cc(Oc2c(OC)cc3cc(C#N)ccc3c2OC)nc(Nc2ccc(C#N)cc2)n1.O=C(O)/C=C\C(=O)O` , what is its reported solubility?
Data returned: 1

* * *

targetUnderTest: Human immunodeficiency virus type 1 reverse transcriptase (Human immunodeficiency virus 1, UniProt Q72547, K103N)
protocolText: Inhibition of HIV1 reverse transcriptase K103N mutant using oligo(dT)16 as primer measured after 40 mins by picogreen-dye based spectrofluorimetric analysis
metricName: IC50 (nM)
Please respond with the number in nM and leave the unit unwritten.

compound | observedMeasurement
COc1cc2cc(C#N)ccc2c(OC)c1Oc1cc(N)nc(Nc2ccc(C#N)cc2)n1 | 40
CCNc1cc(Oc2c(OC)cc3cc(C#N)ccc3c2OC)nc(Nc2ccc(C#N)cc2)n1 | 120

Now turn to the next compound.
Data request: IC50 for COc1cc2cc(C#N)ccc2c(OC)c1Oc1cc(N2CCC(O)C2)nc(Nc2ccc(C#N)cc2)n1 (stereo not drawn) ?
Data returned: 240

* * *

protocolText: Cytotoxicity against human MT4 cells assessed as reduction in cell viability incubated for 5 days by MTT assay
Format: cell-based
assaySetup: human, MT4 cells; time 5 day
metricName: CC50 at 120 h

compound | metricName | observedMeasurement
COc1cc2cc(C#N)ccc2c(OC)c1Oc1cc(NC2CCCC2)nc(Nc2ccc(C#N)cc2)n1 | CC50 at 120 h | > 125 µM
COc1cc2cc(C#N)ccc2c(OC)c1Oc1cc(NCC(O)CO)nc(Nc2ccc(C#N)cc2)n1 (stereo unspecified) | CC50 at 120 h | 29.5 µM
COc1cc2cc(C#N)ccc2c(OC)c1Oc1cc(NCCCOC(C)C)nc(Nc2ccc(C#N)cc2)n1 | CC50 at 120 h | > 125 µM
COc1cc2cc(C#N)ccc2c(OC)c1Oc1cc(NCCCCO)nc(Nc2ccc(C#N)cc2)n1 | CC50 at 120 h | 39.1 µM

Data request: Param item = `CCCC(CCC)Nc1cc(Oc2c(OC)cc3cc(C#N)ccc3c2OC)nc(Nc2ccc(C#N)cc2)n1` ; retrieve measured CC50 at 120 h.
Data returned: > 125 µM

Data request: Moving on to `CCCCNc1cc(Oc2c(OC)cc3cc(C#N)ccc3c2OC)nc(Nc2ccc(C#N)cc2)n1`
Data returned: > 125 µM

Data request: Here is the next compound: `COc1cc2cc(C#N)ccc2c(OC)c1Oc1cc(NCC(F)(F)F)nc(Nc2ccc(C#N)cc2)n1`
Data returned: > 125 µM

Data request: Then this compound: `Cc1cn([C@H]2C[C@H](N=[N+]=[N-])[C@@H](CO)O2)c(=O)[nH]c1=O`
Data returned: > 2 µM

Data request: Also, `COc1cc2cc(C#N)ccc2c(OC)c1Oc1cc(N)nc(Nc2ccc(C#N)cc2)n1` please.
Data returned: 19 µM

* * *

As shown below, each of these molecules has a reported solubility value.
protocolText: Water solubility of compound at pH 2 at 0.1 to 10 mg by HPLC-UV analysis
Format: physicochemical
assaySetup: dose 0.1-10 mg

Solved entries:
molecule | observedMeasurement
COc1cc2cc(C#N)ccc2c(OC)c1Oc1cc(N2CCC(O)C2)nc(Nc2ccc(C#N)cc2)n1.O=C(O)CC(O)(CC(=O)O)C(=O)O (configuration not stated) | < 1 µg/mL
Cc1cc(C#N)cc(C)c1Oc1nc(Nc2ccc(C#N)cc2)nc(N)c1Br | 127 µg/mL
COc1cc2cc(C#N)ccc2c(OC)c1Oc1cc(N)nc(Nc2ccc(C#N)cc2)n1.O=C(O)C(F)(F)F | < 1 µg/mL

Data request: Quick one: solubility of `COc1cc2cc(C#N)ccc2c(OC)c1Oc1cc(N)nc(Nc2ccc(C#N)cc2)n1` ?
Data returned: < 1 µg/mL

Data request: COc1cc2cc(C#N)ccc2c(OC)c1Oc1cc(N2CCC(O)C2)nc(Nc2ccc(C#N)cc2)n1.O=C(O)C(O)C(O)C(=O)O (configuration not stated) , same question.
Data returned: < 1 µg/mL

Data request: Next molecule up: `CC(=O)O.COc1cc2cc(C#N)ccc2c(OC)c1Oc1cc(N)nc(Nc2ccc(C#N)cc2)n1`
Data returned: < 1 µg/mL

* * *

protocolText: Water solubility of compound at pH 7.4 at 0.1 to 10 mg by HPLC-UV analysis
Format: physicochemical
assaySetup: dose 0.1-10 mg
metricName: solubility (µg/mL)
# number only, unit µg/mL dropped from output

Record excerpt, results attached:
compound | metricName | observedMeasurement
COc1cc2cc(C#N)ccc2c(OC)c1Oc1cc(N)nc(Nc2ccc(C#N)cc2)n1.Cc1ccc(S(=O)(=O)O)cc1 | solubility | 2
CCNc1cc(Oc2c(OC)cc3cc(C#N)ccc3c2OC)nc(Nc2ccc(C#N)cc2)n1.O=CO | solubility | 2
Cc1cc(C#N)cc(C)c1Oc1nc(Nc2ccc(C#N)cc2)nc(N)c1Br | solubility | 1
COc1cc2cc(C#N)ccc2c(OC)c1Oc1cc(N2CCC(O)C2)nc(Nc2ccc(C#N)cc2)n1.O=S(=O)(O)O (stereo not given) | solubility | 2
CC(=O)O.CCNc1cc(Oc2c(OC)cc3cc(C#N)ccc3c2OC)nc(Nc2ccc(C#N)cc2)n1 | solubility | 19
COc1cc2cc(C#N)ccc2c(OC)c1Oc1cc(N)nc(Nc2ccc(C#N)cc2)n1.O=C(O)CC(O)(CC(=O)O)C(=O)O | solubility | 4

Data request: Quick check: solubility of COc1cc2cc(C#N)ccc2c(OC)c1Oc1cc(N2CCC(O)C2)nc(Nc2ccc(C#N)cc2)n1.I (stereo not given) ?
Data returned: 9

Data request: Next compound up: COc1cc2cc(C#N)ccc2c(OC)c1Oc1cc(N2CCC(O)C2)nc(Nc2ccc(C#N)cc2)n1.O=C(O)C(F)(F)F (stereo not given)
Data returned: 1

Data request: Further, for `COc1cc2cc(C#N)ccc2c(OC)c1Oc1cc(N)nc(Nc2ccc(C#N)cc2)n1.I` ?
Data returned: 1

Data request: Please give the result for `COc1cc2cc(C#N)ccc2c(OC)c1Oc1cc(N)nc(Nc2ccc(C#N)cc2)n1.O=C(O)C(F)(F)F` too.
Data returned: 3

* * *

Property: pEC50; scope: individual molecules
Tested on: Human immunodeficiency virus 1
protocolText: Antiviral activity against HIV1 harboring reverse transcriptase L100I mutant infected in human MT4 cells assessed as protection against virus-induced cytopathic effect incubated for 5 days by MTT assay
Type: functional, organism-based
assaySetup: Human immunodeficiency virus 1, MT4, 120 h
// scale note: pEC50 = -log10(conc_M); give the bare number

Data request: What reported pEC50 corresponds to `O=C1Nc2ccc(Cl)cc2[C@@](C#CC2CC2)(C(F)(F)F)O1` on Human immunodeficiency virus 1?
Data returned: 7.02

Data request: Repeat for the following molecule: `CCNc1cc(Oc2c(OC)cc3cc(C#N)ccc3c2OC)nc(Nc2ccc(C#N)cc2)n1`
Data returned: 6.89

Data request: Another molecule to check: `COc1cc2cc(C#N)ccc2c(OC)c1Oc1cc(NC(C)(C)C)nc(Nc2ccc(C#N)cc2)n1`
Data returned: 5.72

Data request: Also need `COc1cc2cc(C#N)ccc2c(OC)c1Oc1cc(NCC(C)C)nc(Nc2ccc(C#N)cc2)n1` , thanks.
Data returned: 3.90

* * *

The compounds listed here are annotated with their Ratio EC50.
protocolText: Resistance fold, ratio of EC50 for HIV1 harboring reverse transcriptase Y181C mutant […] to EC50 for wild type HIV1 […]
Assay type: functional
// return a plain number; no unit text

Worked cases, answers included:
compound | metricName | observedMeasurement
CCC(C)CNc1cc(Oc2c(OC)cc3cc(C#N)ccc3c2OC)nc(Nc2ccc(C#N)cc2)n1 (stereo not given) | Ratio EC50 | 10
CCC(C)Nc1cc(Oc2c(OC)cc3cc(C#N)ccc3c2OC)nc(Nc2ccc(C#N)cc2)n1 (stereo not given) | Ratio EC50 | 10
CCCCCNc1cc(Oc2c(OC)cc3cc(C#N)ccc3c2OC)nc(Nc2ccc(C#N)cc2)n1 | Ratio EC50 | 12
CCNc1cc(Oc2c(OC)cc3cc(C#N)ccc3c2OC)nc(Nc2ccc(C#N)cc2)n1 | Ratio EC50 | 7
COc1cc2cc(C#N)ccc2c(OC)c1Oc1cc(NCCCO)nc(Nc2ccc(C#N)cc2)n1 | Ratio EC50 | 8
CCCC(CCC)Nc1cc(Oc2c(OC)cc3cc(C#N)ccc3c2OC)nc(Nc2ccc(C#N)cc2)n1 | Ratio EC50 | 37
COc1cc2cc(C#N)ccc2c(OC)c1Oc1cc(NCC(C)(C)C)nc(Nc2ccc(C#N)cc2)n1 | Ratio EC50 | 28
COc1cc2cc(C#N)ccc2c(OC)c1Oc1cc(NCC2CCOCC2)nc(Nc2ccc(C#N)cc2)n1 | Ratio EC50 | 2
COc1cc2cc(C#N)ccc2c(OC)c1Oc1cc(NCC(O)CO)nc(Nc2ccc(C#N)cc2)n1 (stereo not given) | Ratio EC50 | 7

Data request: Look up Ratio EC50 for this compound: `Nc1ccn([C@@H]2CS[C@H](CO)O2)c(=O)n1`
Data returned: 1
